Could you please report measured inhibition of SARS-CoV-2 cytopathic effect for the items listed next?
system: Vero E6 infected with SARS-CoV-2; assay: inhibition of SARS-CoV-2 cytopathic effect; higher = more antiviral protection, active = above 15; conditions: 100 nM; 48 h
Reply with just the number (in %).

Give reported inhibition of SARS-CoV-2 cytopathic effect value for CCn1c(O)nnc1-c1ccc(Cl)cc1 [5-(4chlorophenyl)-4-ethyl-2,4-dihydro-3H-1,2,4-triazol-3-one] -1.83

Give reported inhibition of SARS-CoV-2 cytopathic effect value for O=C(NC(O)C(Cl)(Cl)Cl)NC(O)C(Cl)(Cl)Cl (stereo unspecified) -0.82

Give reported inhibition of SARS-CoV-2 cytopathic effect value for CC(=O)Nc1ccc(C(=O)NC(C)(C)C)cc1 -1.32

Give reported inhibition of SARS-CoV-2 cytopathic effect value for CO[C@H]1C[C@H](O[C@H]2CC[C@@]3(C)[C@H](CC[C@@H]4[C@@H]3CC[C@]3(C)[C@@H](C5=CC(=O)OC5)[C@@H](OC(C)=O)C[C@]43O)C2)O[C@@H](C)[C@@H]1O -12.1

Give reported inhibition of SARS-CoV-2 cytopathic effect value for NS(=O)(=O)c1ccc(-n2nc(C(F)(F)F)cc2-c2ccc(Cl)cc2)cc1 -2.22

Give reported inhibition of SARS-CoV-2 cytopathic effect value for CNC(=O)c1cc(Oc2ccc(NC(=O)Nc3ccc(Cl)c(C(F)(F)F)c3)cc2)ccn1 2.59

Give reported inhibition of SARS-CoV-2 cytopathic effect value for CCCCCCCCc1ccc(CCC(N)(CO)CO)cc1 -0.53

Give reported inhibition of SARS-CoV-2 cytopathic effect value for Cc1c2oc3c(C)ccc(C(=O)N[C@@H]4C(=O)N[C@@H](C(C)C)C(=O)N5CCC[C@H]5C(=O)N(C)CC(=O)N(C)[C@@H](C(C)C)C(=O)O[C@@H]4C)c3nc-2c(C(=O)N[C@@H]2C(=O)N[C@@H](C(C)C)C(=O)N3CCC[C@H]3C(=O)N(C)CC(=O)N(C)[C@@H](C(C)C)C(=O)O[C@@H]2C)c(N)c1=O 0.83

Give reported inhibition of SARS-CoV-2 cytopathic effect value for CS(=O)(=O)CCNCc1nc(-c2ccc3ncnc(Nc4ccc(OCc5cccc(F)c5)c(Cl)c4)c3c2)cs1 0.15

Give reported inhibition of SARS-CoV-2 cytopathic effect value for O=C(NOCC1CC1)c1ccc(F)c(F)c1Nc1ccc(I)cc1Cl -7.28

Give reported inhibition of SARS-CoV-2 cytopathic effect value for O=C1OCCN1/N=C/c1ccc([N+](=O)[O-])o1 2.2

Give reported inhibition of SARS-CoV-2 cytopathic effect value for CCCCCN(C)CCC(O)(P(=O)(O)O)P(=O)(O)O [ibandronate] 0.79

Give reported inhibition of SARS-CoV-2 cytopathic effect value for Cc1ccc(C(=O)c2cc(O)c(O)c([N+](=O)[O-])c2)cc1 -4.1

Give reported inhibition of SARS-CoV-2 cytopathic effect value for CC(=O)N[C@H]1[C@H]([C@H](O)[C@H](O)CO)OC(O)(C(=O)O)C[C@@H]1O (mixture of isomers) -1.39

Give reported inhibition of SARS-CoV-2 cytopathic effect value for NC(=O)NO [hydroxyurea] 0.03

Give reported inhibition of SARS-CoV-2 cytopathic effect value for O=P(O)(O)C(Cl)(Cl)P(=O)(O)O 0.5
